Data credit: patent US20250099420A1

Tested on: parental HEK cells
assay_explanation: HEK parental Agonist Counterscreen Assay (non-transfected cells)
Assay type: cell-based
condition_context: HEK Agonist Activity; activity relative to known control
readout_label: Averaged Max % Response (±St. Dev.) (%)
Express the result in % but write the number alone.

CC1CCC(NC(=O)CCC(=O)N2CCSc3ccccc32)CC1 (centres unmarked) [SR-01000159110]: 3.44

Dear colleague, I am looking for the recorded Averaged Max % Response (±St. Dev.) of the following compound: O=C(NCCc1ccc(Cl)cc1)c1ccc(N2CC3CC(C2)c2cccc(=O)n2C3)c(NS(=O)(=O)c2ccc3c(c2)OCCO3)c1 (centres unmarked) [SR-01000583473]
54.64

Repeat for the following compound: Cc1ccc(SCC(=O)Nc2nnc(-c3ccccc3Cl)o2)cc1 [SR-01000021416]
23.13

Repeat for the following compound: O=C(CN1CCN(Cc2ccccc2Cl)C1=O)NCc1ccccc1Cl [SR-01000125458]
−1.02
